# experimental-system: T1, 4H340-AA
# T1 chain: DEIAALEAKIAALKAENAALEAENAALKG
# assay-method-text: two-hybrid library CCmax;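 note: natural log of median RNA to DNA barcode read ratio; higher means stronger binding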
# protocol-conditions: mean of both orientations
measured-attribute: interaction score

These solved cases illustrate the format of a correct answer.
* DKNAALEAKIAALEAKNAALEAEIAALKG [4H3378-AA] | -1.86
* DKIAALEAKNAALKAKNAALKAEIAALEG [4H2553-AA] | -0.687
* DKIAALKAKNAALKAKIAALKAKNAALKG [4H3056-AA] | -1.52
* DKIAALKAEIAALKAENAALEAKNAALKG [4H2648-AA] | 1.21

a: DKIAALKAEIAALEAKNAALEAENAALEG [4H2611-AA]
b: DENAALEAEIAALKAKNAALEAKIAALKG [4H1142-AA]
Field: lower interaction score | Options: a / b Identify your pick by its label.
b
